testSystem: mUSP18 (Mus musculus)
Construct: (46-368); His-tag (N); made in house
Sequence (Q9WTV6 46-368): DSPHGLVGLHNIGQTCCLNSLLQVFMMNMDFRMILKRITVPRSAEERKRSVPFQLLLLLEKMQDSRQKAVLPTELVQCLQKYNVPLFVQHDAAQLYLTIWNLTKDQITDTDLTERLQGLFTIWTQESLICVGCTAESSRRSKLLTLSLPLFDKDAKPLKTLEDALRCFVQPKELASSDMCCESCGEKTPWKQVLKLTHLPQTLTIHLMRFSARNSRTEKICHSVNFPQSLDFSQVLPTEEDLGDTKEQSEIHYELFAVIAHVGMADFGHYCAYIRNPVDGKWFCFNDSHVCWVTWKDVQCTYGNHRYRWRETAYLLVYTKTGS
methodDescription: High-throughput screening, ISG15ct-RhoMP, single dose 1.25 µM
Format: biochemical, murine
testContext: mUSP18 %inhibition; carboxylic acid (CA) with coupling reagents DIC/HOBT; read-out: %inh CA + DIC/HOBT
measuredMetric: inhibition at 1.25 µM (%)

COc1ccc(N2CCN(C(C)C(=O)O)CC2)cc1 (centres unmarked); 7.3
O=C(O)c1cn(C2CCC2)nn1; 9
O=C(O)c1cccc(OCCOc2ccccc2Cl)n1; -0.34
O=C(O)C1CCN(C(=O)CCOc2ccccc2)CC1; 1.19
COCC1CCN(c2ccc(C(=O)O)cc2)C1 (centres unmarked); 43.3
O=C(O)c1ccc(Cn2cc(Cl)c(C(F)(F)F)n2)o1; 8.2
O=C(O)c1ccc(OCc2cccnc2)cc1; -0.24
O=C(O)c1sccc1S(=O)(=O)NCc1ccco1; 4.46

(P) O=C(O)c1cnn(-c2ccccc2)n1
(Q) O=C(O)c1ccc(F)c(S(=O)(=O)N2CCC2)c1
Input: P or Q : whose inhibition at 1.25 µM is greater? Your answer should be the label attached to the chosen record.
Output: Q

(a) CNS(=O)(=O)c1ccc(-c2ccccc2OC(F)(F)F)c(C(=O)O)c1
(b) O=C(O)c1cnnn1-c1ccccc1Cl
(c) O=C(O)c1ccc(N2CCCC2)c(F)c1
Input: Rank entries according to their inhibition at 1.25 µM, from the largest number down. Your answer should be the labels, listed in the requested order.
Output: c, b, a
(c: 40.8%, b: 3.42%, a: -3.53%)
